Just for reference, patent US20250304549A1 is where these values come from.

# IC50 listing for each entry below
- TARGET_UNDER_TEST: HDAC1 (Homo sapiens (Human), UniProt Q13547)
- Sequence (Q13547 whole entry): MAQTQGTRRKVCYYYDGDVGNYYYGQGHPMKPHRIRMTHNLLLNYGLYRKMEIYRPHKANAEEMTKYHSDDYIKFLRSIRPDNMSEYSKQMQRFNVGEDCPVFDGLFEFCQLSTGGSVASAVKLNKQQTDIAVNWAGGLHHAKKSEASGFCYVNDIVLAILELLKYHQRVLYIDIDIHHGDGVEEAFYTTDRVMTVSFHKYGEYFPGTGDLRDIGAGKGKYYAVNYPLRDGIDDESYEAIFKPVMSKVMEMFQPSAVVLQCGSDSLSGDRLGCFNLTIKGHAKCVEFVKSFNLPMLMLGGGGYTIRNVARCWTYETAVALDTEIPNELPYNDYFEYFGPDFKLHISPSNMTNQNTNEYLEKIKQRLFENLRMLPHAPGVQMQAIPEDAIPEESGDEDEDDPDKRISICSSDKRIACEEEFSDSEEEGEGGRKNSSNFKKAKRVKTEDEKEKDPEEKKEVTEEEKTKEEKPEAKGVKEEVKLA
- PROCEDURE_SUMMARY: In vitro enzyme inhibition assay - HDAC (HDAC-Glo I/II), HDAC1
- Assay type: biochemical
- APPLIED_CONDITIONS: read-out: HDAC IC50 (nM) HDAC 1
- Excerpt: 2. In Vitro Enzyme Inhibition Assay—HDAC The effect of the compound on the enzymatic activity of pan-HDAC and two isoforms (HDAC1 and HDAC8) was examined using the HDAC-Glo I/II Assay and Screening System assay to assess the level of inhibition of HDAC protease activity and selectivity in each isoform. […] The 384-well plate was then read on a multifunctional microplate reader, with the Luminescence channel selected to record Luminescence values (RLU). […]
Structures can show the parent of a compound that is named as a salt.

Some entries whose results are on file:
INSERT INTO results (compound, target_under_test, readout_name, recorded_result) VALUES
  ('CC1(N)CCN(c2ncc(-c3ccc(/C=C/C(=O)NO)c(O)c3)c(-c3ccc(C#N)c(F)c3)c2C#N)CC1 [Example 64, formate]', 'HDAC1 (Homo sapiens (Human), UniProt Q13547)', 'IC50', '9.08 nM'),
  ('COc1ccc(-c2cnc(N3CCC(NCc4cnc(/C=C/C(=O)NO)nc4)CC3)c(C#N)c2-c2ccc(C#N)c(F)c2)cc1O [Example 106, formate]', 'HDAC1 (Homo sapiens (Human), UniProt Q13547)', 'IC50', '3.81 nM'),
  ('COc1ccc(-c2c(-c3ccc(C#N)c(F)c3)nc(N3CCC(N)CC3)n(C)c2=O)cc1F [CC-90011, reference compound]', 'HDAC1 (Homo sapiens (Human), UniProt Q13547)', 'IC50', '> 10000 nM'),
  ('COc1ccc(-c2cnc(N3CCC(C)(NCc4ccc(/C=C/C(=O)NO)cc4)CC3)c(C#N)c2-c2ccc(C#N)c(F)c2)cc1O [Example 44, formate]', 'HDAC1 (Homo sapiens (Human), UniProt Q13547)', 'IC50', '45.8 nM'),
  ('COc1ccc(-c2cnc(N3CCC(C)(NCc4cnc(/C=C/C(=O)NO)nc4)CC3)c(C#N)c2-c2ccc(C#N)c(F)c2)cc1O [Example 206, formate]', 'HDAC1 (Homo sapiens (Human), UniProt Q13547)', 'IC50', '32.9 nM'),
  ('COc1ccc(-c2c(OCc3ccc(/C=C/C(=O)NO)cc3)cc(N3CCC(N)CC3)nc2-c2ccc(C#N)c(F)c2)cc1O [Example 2, hydrochloride]', 'HDAC1 (Homo sapiens (Human), UniProt Q13547)', 'IC50', '92.3 nM'),
  ('COc1ccc(-c2cnc(N3CCC(NCc4ccc(/C=C/C(=O)NO)cc4)CC3)c(C#N)c2-c2cnc(C#N)c(OC)c2)cc1O [Example 243, hydrochloride]', 'HDAC1 (Homo sapiens (Human), UniProt Q13547)', 'IC50', '0.6 nM'),
  ('N#Cc1ccc(-c2c(-c3ccc(/C=C/C(=O)NO)cc3)cnc(N3CCC(N)CC3)c2C#N)cc1F [Example 63, diformate]', 'HDAC1 (Homo sapiens (Human), UniProt Q13547)', 'IC50', '9.28 nM'),
  ('N#Cc1ccc(-c2c(-c3ccc(OC(F)F)c(O)c3)cnc(N3CCC(NCc4ccc(/C=C/C(=O)NO)cc4)CC3)c2C#N)cc1F', 'HDAC1 (Homo sapiens (Human), UniProt Q13547)', 'IC50', '3.95 nM'),
  ('COc1ccc(-c2cnc(N3CCC(NCc4ccc(/C=C/C(=O)NO)cc4)CC3)c(C#N)c2-c2cnc(C#N)c(C)c2)cc1O [Example 247, formate]', 'HDAC1 (Homo sapiens (Human), UniProt Q13547)', 'IC50', '0.84 nM');

Lookup: What is its IC50 for HDAC1 (Homo sapiens (Human), UniProt Q13547)? Entry: N#Cc1ccc(-c2c(-c3ccc(C4CC4)c(O)c3)cnc(N3CCC(NCc4ccc(/C=C/C(=O)NO)cc4)CC3)c2C#N)cc1F
Found: 83.1 nM

Lookup: What is its IC50 for HDAC1 (Homo sapiens (Human), UniProt Q13547)? Entry: CC(C)(O)COc1ccc(-c2cnc(N3CCC(NCc4ccc(OCC(=O)NO)cc4)CC3)c(C#N)c2-c2ccc(C#N)c(F)c2)cc1O [Example 192, formate]
Found: 1.49 nM

Lookup: What is its IC50 for HDAC1 (Homo sapiens (Human), UniProt Q13547)? Entry: COc1cc(F)c(-c2cnc(N3CCC(NCc4ccc(/C=C/C(=O)NO)cc4)CC3)c(C#N)c2-c2ccc(C#N)c(F)c2)cc1O
Found: 0.77 nM
